# method notes: AUC in ICR mouse at 1 mg/kg, iv measured upto 24 hrs by LCMS analysis
# Assay type: ADME, organism-based
# Parameters: time < 24 hr, dose 1 mg/kg, route intravenous
# test context: in vivo
Kindly state AUC at 24 h for each of the entries shown.
Answers are plain numbers, in µM·h.

Example entries begin here.
compound: C[C@H](Nc1nccc(N2C(=O)OC[C@@H]2[C@H](C)F)n1)c1ncn2c1COc1cc(C(F)(F)F)ccc1-2
measurement label: AUC at 24 h
meas value: 1.02

compound: C[C@H](Nc1ncc(F)c(N2C(=O)OC[C@@H]2[C@H](C)F)n1)c1ncn2c1CCc1cc(C(F)(F)F)ccc1-2
measurement label: AUC at 24 h
meas value: 1.52

compound: CC(C)[C@H]1COC(=O)N1c1ccnc(N[C@@H](C)c2ncn3c2CCc2cc(C(F)(F)F)ccc2-3)n1
measurement label: AUC at 24 h
meas value: 0.312

Parameters: items (list). Returns: AUC at 24 h for each item.
1. C[C@H](Nc1nccc(N2C(=O)OC[C@@H]2[C@H](C)F)n1)c1ncn2c1CCc1cc(Cl)ccc1-2
2. C[C@H](Nc1nccc(N2C(=O)OC[C@@H]2[C@H](C)F)n1)c1ncn2c1CCc1cc(C(F)(F)F)ccc1-2
3. N#Cc1ccnc(N2C(=O)CC[C@H]2C(=O)N(c2cncc(F)c2)[C@H](C(=O)NC2CC(F)(F)C2)c2ccccc2Cl)c1 [IVOSIDENIB]
4. C[C@H](Nc1nccc(N2C(=O)OC[C@@H]2[C@H](C)F)n1)c1ncn2c1COc1cc(Cl)ccc1-2

[out]
0.717
1.44
2.97
0.917

* * *

# target: Isocitrate dehydrogenase [NADP] cytoplasmic (Homo sapiens, UniProt O75874, R132H)
# Sequence (O75874 2-414 R132H limits assumed): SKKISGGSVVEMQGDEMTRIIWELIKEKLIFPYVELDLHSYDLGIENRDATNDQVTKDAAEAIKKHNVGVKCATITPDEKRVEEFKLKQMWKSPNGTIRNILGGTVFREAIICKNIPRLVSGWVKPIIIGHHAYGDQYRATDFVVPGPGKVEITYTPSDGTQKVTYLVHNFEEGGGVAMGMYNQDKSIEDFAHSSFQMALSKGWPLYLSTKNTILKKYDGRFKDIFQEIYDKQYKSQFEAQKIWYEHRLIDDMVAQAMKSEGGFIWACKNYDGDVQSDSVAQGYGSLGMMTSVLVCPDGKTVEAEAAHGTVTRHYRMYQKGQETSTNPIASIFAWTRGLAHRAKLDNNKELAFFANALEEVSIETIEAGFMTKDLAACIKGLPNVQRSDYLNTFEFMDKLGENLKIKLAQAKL
# method notes: Inhibition of recombinant human C-terminal His8-tagged IDH1 R132H mutant expressed in Escherichia coli BL21 assessed as reduction in NADPH consumption using alpha-ketoglutarate as substrate preincubated for 60 mins followed by substrate addition measured for 60 mins in presence of NADPH by diaphorase/resazurin-based assay
Values of IC50 strictly less than 40 nM map to yes (1), and values of at least 40 nM map to no (0).

[in] Consider the compound C[C@H](Nc1nccc(N2C(=O)OC[C@@H]2[C@H](C)F)n1)c1ncn2c1COc1cc(C3CC3)ccc1-2 . Is its IC50 strictly less than 40 nM?
[out] yes (1)

[in] Same for C[C@H](Nc1nccc(N2C(=O)OC[C@@H]2[C@H](C)F)n1)c1ncn2c1CCCc1cc(C(F)(F)F)ccc1-2
[out] no (0)

[in] Same for C[C@H](Nc1nccc(N2C(=O)OC[C@@H]2[C@H](C)F)n1)c1ncn2c1COc1cc(C#N)ccc1-2
[out] no (0)

[in] Same for COc1ccc2c(c1)OCc1c([C@H](C)Nc3nccc(N4C(=O)OC[C@@H]4[C@H](C)F)n3)ncn1-2
[out] no (0)

[in] Same for CC(C)[C@H]1COC(=O)N1c1ccnc(N[C@@H](C)c2ncn3c2CCc2cc(C(F)(F)F)ccc2-3)n1
[out] yes (1)

[in] Same for C[C@H](Nc1nccc(N2C(=O)OC[C@@H]2[C@H](C)F)n1)c1ncn2c1CCc1cc(C(F)(F)F)ccc1-2
[out] yes (1)

[in] Same for CC(C)[C@@H]1N(c2ccnc(N[C@@H](C)c3ncn4c3CCc3cc(C(F)(F)F)ccc3-4)n2)C(=O)OC1(C)C
[out] no (0)

[in] Same for C[C@H](Nc1nccc(N2C(=O)OC[C@@H]2[C@H](C)F)n1)c1ncn2c1COc1cc(C(F)(F)F)ccc1-2
[out] yes (1)

[in] Same for CC1Cc2cc(C(F)(F)F)ccc2-n2cnc([C@H](C)Nc3nccc(N4C(=O)OC[C@@H]4[C@H](C)F)n3)c21 (some centres undefined)
[out] no (0)
